# ASSAY EXPLANATION: Luminescence activity assay of purified Gaussia luciferase mutants on coelenterazine derivative ZS2
# Assay type: biochemical
# Set-up: key: ratio of mutant luminescence intensity to wild-type Gaussia luciferase
# TEST SETTINGS: Substrate ZS2 (Table 16)
OBSERVED PROPERTY: Activity of mutant relative to wild-type Gaussia luciferase without the signal peptide

MOLECULE: F26G N27Y V29C A30V V31L S33G A36R T37A L40A: Gaussia luciferase mutant (protein, SIGNAL (1)..(17), Gaussia luciferase mutant) MGVKVLFALICIAVAEAKPTENNEDGYICVLAGNFRATDADADRGKLPGKKLPLEVLKEMEANARKAGCTRGCLICLSHIKCTPKMKKFIPGRCHTYEGDKESAQGGIGEAIVDIPEIPGFKDLEPMEQFIAQVDLCVDCTTGCLKGLANVQCSDLLKKWLPQRCATFASKIQGQVDKIKGAGGD
EXPERIMENTAL VALUE: 0.080

input: Which measured Activity of mutant relative to wild-type Gaussia luciferase without the signal peptide value corresponds to K66R P84A E102S S103I A104G E110A L124M V138E: Gaussia luciferase mutant (protein, SIGNAL (1)..(17), Gaussia luciferase mutant) MGVKVLFALICIAVAEAKPTENNEDFNIVAVASNFATTDLDADRGKLPGKKLPLEVLKEMEANARRAGCTRGCLICLSHIKCTAKMKKFIPGRCHTYEGDKSIGQGGIGAAIVDIPEIPGFKDMEPMEQFIAQVDLCEDCTTGCLKGLANVQCSDLLKKWLPQRCATFASKIQGQVDKIKGAGGD ?
output: 0.587

The measurements presented in this section are drawn from patent US20250066745A1.
